Assay: Stability in Simulated Intestinal Fluid (SIF)
Type: in vitro ADME
Conditions: 37° C., 0.01 mg/mL
metric: SIF (3 hours): percent of prodrug metabolized to riluzole (%)

compound string: CNCCCCC(=O)Nc1nc2ccc(OC(F)(F)F)cc2s1
value unit: %
test value: 0

compound string: NCC1(CC(=O)Nc2nc3ccc(OC(F)(F)F)cc3s2)CCCCC1
value unit: %
test value: 50

compound string: CC(C)[C@H](N)C(=O)Nc1nc2ccc(OC(F)(F)F)cc2s1
value unit: %
test value: 40

compound string: CCCOC(=O)Nc1nc2ccc(OC(F)(F)F)cc2s1
value unit: %
test value: 0

compound string: CCCCOC(=O)Nc1nc2ccc(OC(F)(F)F)cc2s1
value unit: %
test value: 0

###

The entries below come with measured Metabolic Stability mouse (30 minutes): percent of prodrug metabolized to riluzole values attached.
Test: Metabolic stability in pooled mouse liver microsomes
Assay type: in vitro ADME
Details: mouse liver microsomes 0.5 mg/mL, 1 uM, 37° C., NADPH
metric: Metabolic Stability mouse (30 minutes): percent of prodrug metabolized to riluzole (%)

compound string: CCCCOC(=O)Nc1nc2ccc(OC(F)(F)F)cc2s1
value unit: %
test value: 53

compound string: N[C@@H](COCc1ccccc1)C(=O)Nc1nc2ccc(OC(F)(F)F)cc2s1
value unit: %
test value: 0

compound string: CCCOC(=O)Nc1nc2ccc(OC(F)(F)F)cc2s1
value unit: %
test value: 15

compound string: O=C(O)CCC(=O)Nc1nc2ccc(OC(F)(F)F)cc2s1
value unit: %
test value: 70

compound string: CCOC(=O)Nc1nc2ccc(OC(F)(F)F)cc2s1
value unit: %
test value: 8

compound string: Nc1ccc(C(=O)Nc2nc3ccc(OC(F)(F)F)cc3s2)cc1
value unit: %
test value: 24

compound string: CC(C)[C@H](N)C(=O)Nc1nc2ccc(OC(F)(F)F)cc2s1
value unit: %
test value: 40

compound string: CC(C)COC(=O)Nc1nc2ccc(OC(F)(F)F)cc2s1
value unit: %
test value: 23

compound string: N[C@H](COCc1ccccc1)C(=O)Nc1nc2ccc(OC(F)(F)F)cc2s1
value unit: %
test value: 24

compound string: COC(=O)Nc1nc2ccc(OC(F)(F)F)cc2s1
value unit: %
test value: 10

compound string: O=C(CCC(=O)Nc1nc2ccc(OC(F)(F)F)cc2s1)NCc1cccnc1
value unit: %
test value: 0

compound string: N[C@H](Cc1ccccc1)C(=O)Nc1nc2ccc(OC(F)(F)F)cc2s1
value unit: %
test value: 12

compound string: CN(C)CCOC(=O)Nc1nc2ccc(OC(F)(F)F)cc2s1
value unit: %
test value: 13

compound string: NCC(=O)Nc1nc2ccc(OC(F)(F)F)cc2s1
value unit: %
test value: 4

compound string: CNCCCCC(=O)Nc1nc2ccc(OC(F)(F)F)cc2s1
value unit: %
test value: 78

compound string: C[C@H](N)C(=O)Nc1nc2ccc(OC(F)(F)F)cc2s1
value unit: %
test value: 1

compound string: CC(C)(C)OC(=O)CCC(=O)Nc1nc2ccc(OC(F)(F)F)cc2s1
value unit: %
test value: 0

compound string: O=C(Cc1ccccc1[N+](=O)[O-])Nc1nc2ccc(OC(F)(F)F)cc2s1
value unit: %
test value: 59

###

Test: Plasma stability in fresh human plasma
Format: in vitro ADME
Settings: 1 uM, 37° C.
The entries below come with measured Plasma Stability Human (1 hour): percent of prodrug metabolized to riluzole values attached.
metric: Plasma Stability Human (1 hour): percent of prodrug metabolized to riluzole (%)

compound: NCC(=O)Nc1nc2ccc(OC(F)(F)F)cc2s1 [Cpd 1]
test value: 3
--
compound: CC(C)(C)OC(=O)CCC(=O)Nc1nc2ccc(OC(F)(F)F)cc2s1 [Cpd 22]
test value: 0
--
compound: N[C@@H](COCc1ccccc1)C(=O)Nc1nc2ccc(OC(F)(F)F)cc2s1 [Cpd 10]
test value: 9
